Measured values drawn from patent US7524503B2 for this set.

Parameter ELISPOT Responses (SFC/10^6 PBMC): see the listing below.
test system: PBMC from healthy HCMV seropositive donors; test: IFN-γ ELISPOT assay; assay type: cell-based, human; settings: donor seven; peptide 10 μg/ml
The figure you give is taken to be in SFC/10^6 PBMC; do not add the unit.

In [3]: df
Out[3]:
                                        seq                           endpoint  endpoint_value
0                      ILARNLVPMVATVQGQNLKY  ELISPOT Responses (SFC/10^6 PBMC)             216
1  IIYTRNHEV (human cytomegalovirus IE2 CTL epitope peptide)  ELISPOT Responses (SFC/10^6 PBMC)             369

Specify reported ELISPOT Responses (SFC/10^6 PBMC) for the sequence shown: MLNIPSINV [reference compound]
65

###

molecular target: HLA A2 (Homo sapiens, UniProt P04439, D140Y/D185E/D98H/E176V/E277Q/G131W/G231S/I119V/I121R/I166T/I218V/L300P/L318F/N151K/N90K/P208A/P217A/Q86G/Q94H/R138H/R169H/T345S); construct: endogenous in cells; host or cells: T2 cells; format: cell-based; conditions: HLA A2 on T2 cells; relative increase in HLA expression vs no peptide at 26° C.
endpoint: MSE (MHC stabilization efficiency)

>>> print(df.to_string())
                                        seq      endpoint_value
0  NILQKIEKI (human cytomegalovirus pp150 CTL epitope peptide)      + (+ = 51-99%)
1  SAIIGIYLL (human cytomegalovirus gH CTL epitope peptide)       − (− = 0-50%)
2  DLVPLTVSV (human cytomegalovirus pp71 CTL epitope peptide)      + (+ = 51-99%)
3  FLGARSPSL (human cytomegalovirus pp150 CTL epitope peptide)  ++ (++ = 100-199%)
4            VIGDQYVKV [reference compound]  ++ (++ = 100-199%)

Specify reported MSE (MHC stabilization efficiency) for the sequence shown: GLLGASMDL (human cytomegalovirus pp28 CTL epitope peptide)
− (− = 0-50%)

Specify reported MSE (MHC stabilization efficiency) for the sequence shown: NLFPYLVSA (human cytomegalovirus gB CTL epitope peptide)
++ (++ = 100-199%)

Specify reported MSE (MHC stabilization efficiency) for the sequence shown: ALFFFDIDL [reference compound]
++ (++ = 100-199%)

Specify reported MSE (MHC stabilization efficiency) for the sequence shown: QLLIPKSFTL (human cytomegalovirus pp71 CTL epitope peptide)
− (− = 0-50%)

Specify reported MSE (MHC stabilization efficiency) for the sequence shown: TMWCLTLFV (human cytomegalovirus UL18 CTL epitope peptide)
++ (++ = 100-199%)

Specify reported MSE (MHC stabilization efficiency) for the sequence shown: LLLIVTPVV (human cytomegalovirus pp28 CTL epitope peptide)
++ (++ = 100-199%)

###

target: HLA A2 (Homo sapiens, UniProt P04439, D140Y/D185E/D98H/E176V/E277Q/G131W/G231S/I119V/I121R/I166T/I218V/L300P/L318F/N151K/N90K/P208A/P217A/Q86G/Q94H/R138H/R169H/T345S); construct: endogenous in cells; host or cells: T2 cells; type: cell-based; details: HLA A2 on T2 cells; relative increase in HLA expression vs no peptide at 26° C.
endpoint: MSE (MHC stabilization efficiency)

Recorded results for 5 sequences are shown here.
In [3]: df
Out[3]:
                                        seq                            endpoint      endpoint_value
0  YLMDELRYV (human cytomegalovirus gH CTL epitope peptide)  MSE (MHC stabilization efficiency)  ++ (++ = 100-199%)
1  GLDDLMSGL (human cytomegalovirus gB CTL epitope peptide)  MSE (MHC stabilization efficiency)  ++ (++ = 100-199%)
2            RLLQTGIHV [reference compound]  MSE (MHC stabilization efficiency)  ++ (++ = 100-199%)
3  LMLLKNGTV (human cytomegalovirus gH CTL epitope peptide)  MSE (MHC stabilization efficiency)       − (− = 0-50%)
4            MLNIPSINV [reference compound]  MSE (MHC stabilization efficiency)  ++ (++ = 100-199%)

Specify reported MSE (MHC stabilization efficiency) for the sequence shown: RIEENLEGV (human cytomegalovirus pp150 CTL epitope peptide)
+ (+ = 51-99%)

Specify reported MSE (MHC stabilization efficiency) for the sequence shown: LLIDPTSGL (human cytomegalovirus pp28 CTL epitope peptide)
+ (+ = 51-99%)

Specify reported MSE (MHC stabilization efficiency) for the sequence shown: YILEETSVM (human cytomegalovirus IE1 CTL epitope peptide) [reference compound]
++ (++ = 100-199%)

Specify reported MSE (MHC stabilization efficiency) for the sequence shown: ALVNFLRHL (human cytomegalovirus pp150 CTL epitope peptide)
++ (++ = 100-199%)

Specify reported MSE (MHC stabilization efficiency) for the sequence shown: LLGALNLCL (human cytomegalovirus IE2 CTL epitope peptide)
++ (++ = 100-199%)

Specify reported MSE (MHC stabilization efficiency) for the sequence shown: YLTVFTVYL (human cytomegalovirus gH CTL epitope peptide)
++ (++ = 100-199%)

Specify reported MSE (MHC stabilization efficiency) for the sequence shown: LLNCAVTKL (human cytomegalovirus pp50 CTL epitope peptide)
++ (++ = 100-199%)

Specify reported MSE (MHC stabilization efficiency) for the sequence shown: RIWCLVVCV (human cytomegalovirus gB CTL epitope peptide)
− (− = 0-50%)
